B1: glmS ribozyme (parent)
chain: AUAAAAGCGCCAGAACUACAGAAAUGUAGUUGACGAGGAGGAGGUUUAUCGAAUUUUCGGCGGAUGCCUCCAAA

Variants of: B1
Assay: self-cleavage kobs at 10000 uM GlcN6P; higher = faster cleavage; RNA array
Conditions: with glucosamine-6-phosphate
This sample holds only a part of the variants without activity.
Overview of reported self-cleavage kobs at 10000 uM GlcN6P across a group of variants:
Reply numerically in s⁻¹, unit not repeated.

See these solved cases before continuing.
| MUTATION_LIST | UNIT_STRING | RECORDED_NUMBER |
| --- | --- | --- |
| U30A C67U | s⁻¹ | 0.00106 |
| C16G U45A | s⁻¹ | 0.0101 |
| A12G U46G A53U | s⁻¹ | 9.96e-05 |
| U54G U65G | s⁻¹ | 0.00282 |
| A15U C67A | s⁻¹ | 0.00127 |
| U45A U57C | s⁻¹ | 0.000355 |
| C16A C34A G37U C50A C61A | s⁻¹ | 0.000316 |
| A53U C71A | s⁻¹ | 0.00487 |
| G37A U47G | s⁻¹ | 0.000396 |
| A15U G29C A39G | s⁻¹ | 0.00376 |

Return value of self-cleavage kobs at 10000 uM GlcN6P for input U31G A48U U55G A64G , no commentary.
0.000484

State its self-cleavage kobs at 10000 uM GlcN6P: A48C U54A
0.000371
